- TGT: Heat shock protein HSP 90-alpha (Homo sapiens) (UniProt P07900)
- RUN DESCRIPTION: Inhibition of human His-tagged Hsp90 alpha N-terminal domain ATPase activity expressed in Escherichia coli BL21(DE3) at 3.125 uM assessed as ADP formation by pyruvate kinase/lactate dehydrogenase-coupled assay
Provide the recorded Activity for the entries that follow.
Give bare numbers, in nmol/min/mg.

Sample answers from the record:
SMILES STRUCTURE: CCn1cc(C(=O)NC(=S)Nc2ccc(F)cc2)c(-c2ccccc2)nc1=O
OBSERVED MEASUREMENT: 92.6
//
SMILES STRUCTURE: CCn1cc(C(=O)NC(=S)Nc2ccc(OC)cc2)c(-c2ccccc2)nc1=O
OBSERVED MEASUREMENT: 81.1
//
SMILES STRUCTURE: CCn1cc(C(=O)NC(=S)Nc2ccccc2C)c(-c2ccccc2)nc1=O
OBSERVED MEASUREMENT: 93.5
//
SMILES STRUCTURE: CCn1cc(C(=O)NC(=S)Nc2ccc(C(N)=O)cc2)c(-c2ccccc2)nc1=O
OBSERVED MEASUREMENT: 93.5
//
SMILES STRUCTURE: CCn1cc(C(=O)NC(=S)Nc2ccc(C)cc2)c(-c2ccccc2)nc1=O
OBSERVED MEASUREMENT: 90.2
//
SMILES STRUCTURE: CCn1cc(C(=O)NC(=S)Nc2cccc3ccccc23)c(-c2ccccc2)nc1=O
OBSERVED MEASUREMENT: 75.5

Please give Activity, item by item, for the list that follows.
1. CCn1cc(C(=O)NC(=S)NCc2ccccc2)c(-c2ccccc2)nc1=O
2. CCn1cc(C(=O)NC(=S)Nc2ccccc2)c(-c2ccccc2)nc1=O
3. CCn1cc(C(=O)NC(=S)Nc2ccc(Br)cc2)c(-c2ccccc2)nc1=O

output:
[90.2, 85.3, 80.1]

input: Find the measured Activity of CCn1cc(C(=O)NC(=S)Nc2ccc(Cl)cc2)c(-c2ccccc2)nc1=O with Heat shock protein HSP 90-alpha (Homo sapiens) (UniProt P07900) as test system.
output: 88.8
